# method: Absorption of sodium cefoxitin with varying concentrations of hexadecyl lysinate in rats, percent bioavailability (Example 9)
# Format: in vivo, rat
# experimental setup: rat, serum, 2.5 mg, pH 6, rats, duodenal, hexadecyl lysinate 0 mg/body, 2.5 mg sodium cefoxitin, pH 6; read-out: Percent Cefoxitin Bioavailability (mean ± SE), Duodenal
value kind: bioavailability (%)
Please respond with the number in % and leave the unit unwritten.

Report bioavailability, nothing else, for this compound: "CO[C@@]1(NC(=O)Cc2cccs2)C(=O)N2C(C(=O)O)=C(COC(N)=O)CS[C@@H]21" 1

###

# method: Absorption of sodium cefoxitin with or without alcohol-lysine esters in rats, percent bioavailability versus intravenous (Example 6)
# experimental setup: rat, serum, 2.5 mg, pH 7, Percent Cefoxitin Bioavailability (mean ± SE), Rectal, rats, 2.5 mg sodium cefoxitin ± 5.0 mg alcohol-lysine ester, 250 μl, pH 7, versus intravenous
value kind: bioavailability (%)
Please respond with the number in % and leave the unit unwritten.

Report bioavailability, nothing else, for this compound: "CO[C@@]1(NC(=O)Cc2cccs2)C(=O)N2C(C(=O)O)=C(COC(N)=O)CS[C@@H]21" 2

###

# method: Absorption of sodium cefoxitin with varying concentrations of hexadecyl lysinate in rats, percent bioavailability (Example 9)
# Type: in vivo, rat
# experimental setup: rat, serum, 2.5 mg, pH 6, rats, rectal, hexadecyl lysinate 0 mg/body, 2.5 mg sodium cefoxitin, pH 6; read-out: Percent Cefoxitin Bioavailability (mean ± SE), Rectal
# Procedure: Percent bioavailability was determined versus intravenous administration. Each animal received 2.5 mg sodium cefoxitin with varying amounts of hexadecyl lysinate.
value kind: bioavailability (%)
Please respond with the number in % and leave the unit unwritten.

Report bioavailability, nothing else, for this molecule: "CO[C@@]1(NC(=O)Cc2cccs2)C(=O)N2C(C(=O)O)=C(COC(N)=O)CS[C@@H]21" 2

###

# method: Absorption of cytarabine with or without hexadecyl lysinate in rats, percent bioavailability versus intravenous (Example 8)
# experimental setup: rat, in vivo, 2.5 mg, pH 6, rats, rectal, 2.5 mg cytarabine ± 5.0 mg hexadecyl lysinate, 250 μl, pH 6, versus intravenous; read-out: Percent Cytarabine Bioavailability (mean ± SE), Rectal
value kind: bioavailability (%)
Please respond with the number in % and leave the unit unwritten.

Report bioavailability, nothing else, for this molecule: Nc1ccn([C@@H]2O[C@H](CO)[C@@H](O)[C@@H]2O)c(=O)n1 [Cytarabine] 6

###

# method: Absorption of sodium cefoxitin with or without alcohol-lysine esters in rats, percent bioavailability versus intravenous (Example 6)
# experimental setup: rat, serum, 2.5 mg, pH 7, Percent Cefoxitin Bioavailability (mean ± SE), Duodenal, rats, 2.5 mg sodium cefoxitin ± 5.0 mg alcohol-lysine ester, 250 μl, pH 7, versus intravenous
value kind: bioavailability (%)
Please respond with the number in % and leave the unit unwritten.

Report bioavailability, nothing else, for this compound: "CO[C@@]1(NC(=O)Cc2cccs2)C(=O)N2C(C(=O)O)=C(COC(N)=O)CS[C@@H]21" 1

###

# method: Absorption of sodium cefoxitin with or without alcohol-lysine esters in rats, percent bioavailability versus intravenous (Example 6)
# experimental setup: rat, serum, 2.5 mg, intestinal absorption of sodium cefoxitin, with 5 mg/dose promoter (hexadecyl lysinate) or without
value kind: bioavailability (%)
Please respond with the number in % and leave the unit unwritten.

Report bioavailability, nothing else, for this compound: "CO[C@@]1(NC(=O)Cc2cccs2)C(=O)N2C(C(=O)O)=C(COC(N)=O)CS[C@@H]21" 1
